Cited source: DBAASP

// reported MIC for each item listed
Test system: Staphylococcus aureus RN4220

As a guide, the following entries are already answered.
CC[C@H](C)[C@H](N)C(=O)N[C@@H](Cc1cnc[nH]1)C(=O)N[C@@H](Cc1cnc[nH]1)C(=O)N[C@@H](CCC(N)=O)C(=O)NCC(=O)N[C@@H](CC(C)C)C(=O)N1CCC[C@H]1C(=O)N[C@@H](CCC(N)=O)C(=O)N[C@@H](CCC(=O)O)C(=O)O [IHHQGLPQE]: ≥ 2500 µM
CC[C@H](C)[C@H](N)C(=O)N[C@@H](CCCN=C(N)N)C(=O)N[C@@H](CCCN=C(N)N)C(=O)N[C@@H](CCC(N)=O)C(=O)NCC(=O)N[C@@H](CC(C)C)C(=O)N1CCC[C@H]1C(=O)N[C@@H](CCC(=O)O)C(=O)O [IRRQGLPE]: ≥ 1250 µM
CC(C)C[C@H](NC(=O)CNC(=O)[C@H](CCC(N)=O)NC(=O)[C@H](Cc1cnc[nH]1)NC(=O)[C@@H](N)CCCCN)C(=O)N1CCC[C@H]1C(=O)N[C@@H](CCC(N)=O)C(=O)N[C@@H](CCC(=O)O)C(=O)O [KHQGLPQE]: ≥ 1250 µM
CC(C)C[C@H](NC(=O)[C@H](C)NC(=O)[C@H](CC(N)=O)NC(=O)[C@H](CCC(=O)O)NC(=O)[C@H](CC(N)=O)NC(=O)[C@H](CC(C)C)NC(=O)[C@@H](N)C(C)C)C(=O)N[C@@H](CCCN=C(N)N)C(=O)O [VLNENALR]: ≥ 1250 µM
CC(C)C[C@H](NC(=O)[C@H](CC(N)=O)NC(=O)[C@H](CCC(=O)O)NC(=O)[C@H](CC(N)=O)NC(=O)[C@H](CC(C)C)NC(=O)[C@@H](N)C(C)C)C(=O)N[C@@H](CCCN=C(N)N)C(=O)N[C@@H](CCCN=C(N)N)C(=O)O [VLNENLRR]: ≥ 1250 µM

Please turn your attention to the following entry.
Data request: GET /values?readout=MIC&item= CC(C)C[C@H](NC(=O)[C@H](CC(C)C)NC(=O)[C@H](CC(N)=O)NC(=O)[C@H](CCC(=O)O)NC(=O)[C@H](CC(N)=O)NC(=O)[C@H](CC(C)C)NC(=O)[C@@H](N)C(C)C)C(=O)O [VLNENLL]
Data returned: ≥ 1250 µM

----------
Test system: Escherichia coli ATCC 25922
measured endpoint: MIC (µM)
Answer with a number only, understood to be in µM.

As a guide, the following entries are already answered.
NC(=O)[C@H](Cc1ccccc1)NC(=O)[C@H](Cc1ccccc1)NC(=O)[C@H](Cc1ccccc1)NC(=O)[C@H](Cc1ccccc1)NC(=O)[C@H](Cc1ccccc1)NC(=O)[C@@H]1CCCN1C(=O)[C@H](CCCN=C(N)N)NC(=O)[C@@H]1CCCN1C(=O)[C@H](CCCN=C(N)N)NC(=O)[C@@H]1CCCN1C(=O)[C@H](CCCN=C(N)N)NC(=O)[C@@H]1CCCN1C(=O)[C@H](CCCN=C(N)N)NC(=O)[C@@H](N)CCCN=C(N)N: 10
CC[C@H](C)[C@H](NC(=O)[C@H](CCCCN)NC(=O)[C@H](CCCN=C(N)N)NC(=O)[C@H](Cc1ccccc1)NC(=O)[C@H](CC(C)C)NC(=O)[C@H](CCCN=C(N)N)NC(=O)[C@@H](N)CCCCN)C(=O)N[C@@H](CC(C)C)C(=O)N[C@@H](CCCN=C(N)N)C(=O)N[C@@H](Cc1ccc(O)cc1)C(=O)N[C@@H](CC(C)C)C(N)=O: 46.8
CSCC[C@H](NC(=O)[C@H](CCCN=C(N)N)NC(=O)[C@H](Cc1c[nH]c2ccccc12)NC(=O)[C@H](CCC(N)=O)NC(=O)[C@H](Cc1c[nH]c2ccccc12)NC(=O)[C@H](CCCN=C(N)N)NC(=O)[C@H](CCCN=C(N)N)NC(=O)[C@H](CS)NC(=O)[C@H](CCCCN)NC(=O)[C@@H](N)Cc1ccccc1)C(=O)N[C@@H](CCCCN)C(=O)O: 30.8
CC(C)C[C@H](NC(=O)[C@H](CC(C)C)NC(=O)[C@H](CCCCN)NC(=O)[C@H](CC(C)C)NC(=O)[C@H](CC(C)C)NC(=O)[C@H](CCCCN)NC(=O)[C@H](CCCCN)NC(=O)[C@H](CC(C)C)NC(=O)[C@H](CC(C)C)NC(=O)[C@H](CCCCN)NC(=O)[C@H](CCCCN)NC(=O)[C@H](CC(C)C)NC(=O)[C@H](CC(C)C)NC(=O)[C@H](CCCCN)NC(=O)[C@@H](N)CC(C)C)C(N)=O: 13
CC(C)C[C@H](NC(=O)[C@H](CC(N)=O)NC(=O)[C@H](CCCCN)NC(=O)[C@H](CCCN=C(N)N)NC(=O)[C@@H]1CCCN1C(=O)[C@H](C)N)C(=O)N[C@@H](CCCCN)C(=O)N[C@@H](Cc1c[nH]c2ccccc12)C(=O)O: 31.6

Please turn your attention to the following entry.
Data request: GET /values?readout=MIC&item= "CC(C)C[C@H](NC(=O)[C@H](CCCN=C(N)N)NC(=O)[C@H](CCCN=C(N)N)NC(=O)[C@H](CC(C)C)NC(=O)[C@H](CC(C)C)NC(=O)[C@H](CCCN=C(N)N)NC(=O)[C@H](CCCN=C(N)N)NC(=O)[C@H](CC(C)C)NC(=O)[C@H](CC(C)C)NC(=O)[C@H](CCCN=C(N)N)NC(=O)[C@H](CCCN=C(N)N)NC(=O)[C@H](CC(C)C)NC(=O)[C@H](C)NC(=O)[C@H](CC(=O)O)NC(=O)[C@@H](N)CC(=O)O)C(=O)O"
Data returned: 100
